Tested on: Streptococcus
Assay: GAS UMAA2166 growth inhibition – luminescence, BacTiterGlo, counter-screen for streptokinase expression inhibitor project, dose response (AID 1915);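 further: potency for reduction of bacterial viability or growth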
Format: functional, organism-based
Active and inactive are the calls of the source. No stated cut-off is given here; in the data, actives have a measured EC50 and inactives only a lower limit.
measured_quantity: EC50

Answer briefly: EC50 recorded on Streptococcus for Cc1cc(C)c2ccc(N)nc2c1O
9.09 µM (active)

GET EC50 | system: Streptococcus | item: COCC1CCN(C(=O)c2ccc3oc(Cc4ccccc4)nc3c2)C1 (stereo not given)
> 150 µM (not active)

State EC50 (Streptococcus) of O=C(CSc1nc(O)c2cnn(-c3ccccc3)c2n1)N1N=C(c2cccs2)CC1c1ccc(F)cc1 (stereo not given) .
7.18 µM (active)

State measured EC50 of the compound CC/C(=C(\c1ccccc1)c1ccc(OCCN(C)C)cc1)c1ccccc1 [TAMOXIFEN] with Streptococcus.
21.8 µM (active)

State the measured EC50 (Streptococcus) of O=C1C=C(N2CCCCC2)c2ccccc2C1=O
> 50 µM (not active)

Give reported EC50 for Cc1csc2c(N3CCN(C(=O)Nc4ccc(Cl)c(Cl)c4)CC3)ncnc12 (Streptococcus)
57.1 µM (active)

Retrieve EC50 on Streptococcus; query CCOC(=O)Nc1ccc(OCc2nnc3c4ccccc4c(C)nn23)cc1
0.676 µM (active)

GET EC50 where system = Streptococcus and item = Cc1ccc2nc(-c3ccc(NS(=O)(=O)c4ccc(F)cc4)cc3)sc2c1
5.33 µM (active)

State EC50 (Streptococcus) of O=C(Nc1nnc(C2=COCCO2)o1)c1ccc(Cc2ccccc2)cc1 .
3.96 µM (active)

Retrieve EC50 on Streptococcus; query Cc1cccc(C)c1Oc1nc(-c2ccccc2)ncc1S(=O)(=O)c1ccccc1
> 150 µM (not active)

Reference source for all entries: ChEMBL document CHEMBL1201862
